# Assay Summary: Half life in mouse liver microsome
# Type: ADME
# Measurement Setup: liver microsomes
Quantity: half-life (min)

# Molecule, Units Text, Result Number
records = [
    ("O=C(NCc1ccccc1OC(F)(F)F)N1CCC(Oc2ncccn2)CC1", "min", 10),
    ("O=C(NCCC(c1ccc(F)cc1)c1ccc(F)cc1)N1CCC(c2cnccn2)C1 (stereo unspecified)", "min", 2),
    ("O=C(NCCC(c1ccc(F)cc1)c1ccc(F)cc1)N1CCC(Oc2cnccn2)CC1", "min", 2),
    ("O=C(NCc1ccc(Cl)cc1Cl)N1CCC(Oc2ccncc2)CC1", "min", 25),
    ("O=C(NCc1ccccc1OC(F)(F)F)N1CCC(Oc2ccncc2)CC1", "min", 42),
    ("O=C(NCc1ccccc1OC(F)(F)F)N1CCC(c2ccncc2)C1 (stereo unspecified)", "min", 42),
]

----------
Reported half-life by item:
# Assay Summary: Half life in human liver microsome
# Type: ADME
# Measurement Setup: liver microsomes

# Compound, half-life, min
rows = [
    ("O=C(NCc1ccc(Cl)cc1Cl)N1CCC(Oc2ccncc2)CC1", 42),
    ("O=C(NCc1ccccc1OC(F)(F)F)N1CCC(c2ccncc2)C1 (stereo unspecified)", 23),
    ("O=C(NCc1ccccc1OC(F)(F)F)N1CCC(Oc2ncccn2)CC1", 54),
    ("O=C(NCCC(c1ccc(F)cc1)c1ccc(F)cc1)N1CCC(Oc2cnccn2)CC1", 7),
    ("O=C(NCc1ccccc1OC(F)(F)F)N1CCC(Oc2ccncc2)CC1", 34),
    ("O=C(NCCC(c1ccc(F)cc1)c1ccc(F)cc1)N1CCC(c2cnccn2)C1 (stereo unspecified)", 2),
]

----------
Reported IC50 by item:
# System Under Test: Bifunctional epoxide hydrolase 2 (Homo sapiens, UniProt P34913)
# Assay Summary: Inhibition of human soluble epoxide hydrolase

# Compound, Units Text, IC50
records = [
    ("O=C(NCCC(c1ccc(F)cc1)c1ccc(F)cc1)N1CCC(c2cnccn2)C1 (stereo unspecified)", "nM", 3),
    ("O=C(NCc1ccc(Cl)cc1Cl)N1CCC(Oc2ccncc2)CC1", "nM", 9),
    ("O=C(NCc1ccccc1OC(F)(F)F)N1CCC(Oc2ccncc2)CC1", "nM", 14),
    ("O=C(NCc1ccccc1OC(F)(F)F)N1CCC(c2ccncc2)C1 (stereo unspecified)", "nM", 7),
    ("O=C(NCc1ccccc1OC(F)(F)F)N1CCC(Oc2ncccn2)CC1", "nM", 4),
    ("O=C(NCCC(c1ccc(F)cc1)c1ccc(F)cc1)N1CCC(Oc2cnccn2)CC1", "nM", 1),
]

----------
# System Under Test: Bifunctional epoxide hydrolase 2 (Homo sapiens, UniProt P34913)
# Sequence (P34913 whole entry): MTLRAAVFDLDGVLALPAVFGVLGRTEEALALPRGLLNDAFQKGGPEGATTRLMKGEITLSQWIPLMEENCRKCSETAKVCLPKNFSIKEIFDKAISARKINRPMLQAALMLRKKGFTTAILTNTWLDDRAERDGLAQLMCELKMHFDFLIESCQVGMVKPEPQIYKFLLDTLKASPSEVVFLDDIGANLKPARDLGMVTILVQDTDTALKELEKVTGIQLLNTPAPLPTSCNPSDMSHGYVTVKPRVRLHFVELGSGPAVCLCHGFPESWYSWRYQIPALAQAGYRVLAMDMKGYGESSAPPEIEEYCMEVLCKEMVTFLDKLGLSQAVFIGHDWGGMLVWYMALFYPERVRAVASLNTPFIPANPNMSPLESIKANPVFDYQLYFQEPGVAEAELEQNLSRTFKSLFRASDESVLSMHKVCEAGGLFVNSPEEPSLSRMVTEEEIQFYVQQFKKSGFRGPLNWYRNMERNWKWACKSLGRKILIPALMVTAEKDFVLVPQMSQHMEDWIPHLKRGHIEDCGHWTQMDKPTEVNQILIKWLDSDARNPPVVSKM
# Assay Summary: Inhibition of human soluble epoxide hydrolase assessed as [2-3H]trans-1,3-diphenyl propylene oxide hydrolysis by cellular assay
Quantity: IC50 (nM)

# Compound, System Under Test, Quantity, Result Number
data = [
    ("O=C(NCc1ccccc1OC(F)(F)F)N1CCC(c2ccncc2)C1 (stereo not given)", "Bifunctional epoxide hydrolase 2 (Homo sapiens, UniProt P34913)", "IC50", 76),
    ("O=C(NCc1ccccc1OC(F)(F)F)N1CCC(Oc2ncccn2)CC1", "Bifunctional epoxide hydrolase 2 (Homo sapiens, UniProt P34913)", "IC50", 40),
    ("O=C(NCCC(c1ccc(F)cc1)c1ccc(F)cc1)N1CCC(c2cnccn2)C1 (stereo not given)", "Bifunctional epoxide hydrolase 2 (Homo sapiens, UniProt P34913)", "IC50", 4),
    ("O=C(NCc1ccc(Cl)cc1Cl)N1CCC(Oc2ccncc2)CC1", "Bifunctional epoxide hydrolase 2 (Homo sapiens, UniProt P34913)", "IC50", 22),
    ("O=C(NCCC(c1ccc(F)cc1)c1ccc(F)cc1)N1CCC(Oc2cnccn2)CC1", "Bifunctional epoxide hydrolase 2 (Homo sapiens, UniProt P34913)", "IC50", 13),
]

Each recorded value in this set is attributed to ChEMBL document CHEMBL1155546.
